target: human QRFP receptor (GPR103) (Homo sapiens); construct: membrane sample; experiment: QRFP43-binding inhibitory test; settings: inhibition of specific [125I]QRFP43 binding; membranes of CHO-K1 cells expressing GPR103; 25° C., 1 hour
Sequence (Q96P65 whole entry): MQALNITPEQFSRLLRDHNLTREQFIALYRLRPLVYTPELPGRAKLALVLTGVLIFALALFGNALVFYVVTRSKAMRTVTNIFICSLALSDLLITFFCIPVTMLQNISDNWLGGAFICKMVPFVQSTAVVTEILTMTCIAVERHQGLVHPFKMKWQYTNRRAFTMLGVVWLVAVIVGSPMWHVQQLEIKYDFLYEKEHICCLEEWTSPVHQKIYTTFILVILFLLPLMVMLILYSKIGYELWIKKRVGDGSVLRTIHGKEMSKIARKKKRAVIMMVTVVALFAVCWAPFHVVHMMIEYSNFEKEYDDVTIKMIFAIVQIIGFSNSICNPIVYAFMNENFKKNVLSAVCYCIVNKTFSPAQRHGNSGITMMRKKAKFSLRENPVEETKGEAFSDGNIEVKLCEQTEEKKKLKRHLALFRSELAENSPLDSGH
pIC50: −log10 of the molar value.
quantity-name: pIC50

CN1CCN(CCNC(=O)c2[nH]c3ccc(Cl)cc3c2-c2ccoc2)CC1 : 8.65

a: CN1CCN(CCNC(=O)c2[nH]c3ccc(Cl)cc3c2-c2cscn2)CC1
b: CNC(CCCCNC(=O)c1[nH]c2ccccc2c1-c1ccoc1)c1ccccn1 (single isomer, unassigned)
Between a and b , which one has the lower reported pIC50 value? Give the label of your selection.
a
(a: 7.85, b: 8.97)

###

target: human QRFP receptor (GPR103) (Homo sapiens); construct: membrane sample; assay: QRFP43-binding inhibitory test; conditions: inhibition of specific [125I]QRFP43 binding; membranes of CHO-K1 cells expressing GPR103; 25° C., 1 hour
pIC50: −log10 of the molar value.
quantity-name: pIC50

Known pIC50 results, listed for orientation:
CN1CC[C@H]2C[C@H](NC(=O)c3[nH]c4ccc(Cl)cc4c3-c3ccoc3)CC[C@@H]2C1 (single isomer, unassigned) : 8.01
CN1CCN(CCNC(=O)c2[nH]c3ccc(Cl)cc3c2-c2cccs2)CC1 : 8.33
CN1CCC(CCNC(=O)c2[nH]c3ccc(Cl)cc3c2-c2ccoc2)CC1 : 8.20

1: CN1CCN(CCNC(=O)c2[nH]c3ccc(Cl)cc3c2-c2ccccc2)CC1
2: O=C(NCCCCC(c1ccco1)N1CCCC1)c1[nH]c2ccc(Cl)cc2c1-c1ccoc1 (racemic)
3: CN1CCN(CCNC(=O)c2[nH]c3ccc(Cl)cc3c2-c2ccsc2)CC1
4: CN1CC[C@H]2C[C@H](NC(=O)c3cc4cc(Cl)ccc4n3C)CC[C@@H]2C1 (single isomer, unassigned) [Reference example 1]
Would you mind ranking these molecules by ascending pIC50? Answer format: the labels, ordered as requested.
4, 1, 3, 2

// provenance: patent US20120028990A1
